Where do the numbers come from? From patent US20220340682A1.

Below, each entry is listed alongside its reported percentage of binding compared to full binding with human CEACAM5.
# target system: T1, CEACAM5 A2B2, human CEACAM5 A2-B2 domain (321-498) (human, UniProt P06731 321-498)
# T1 construct: Followed by 6 amino acid His-Tag; also called hCEACAM5-A2-B2
# T1 sequence: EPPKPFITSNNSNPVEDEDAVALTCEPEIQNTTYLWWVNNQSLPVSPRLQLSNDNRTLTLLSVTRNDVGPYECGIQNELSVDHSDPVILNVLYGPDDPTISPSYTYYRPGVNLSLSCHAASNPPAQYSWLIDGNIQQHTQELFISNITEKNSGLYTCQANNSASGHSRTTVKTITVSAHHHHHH
# assay protocol: ELISA on CEACAM5 domains
The answer is to be given in %; state only the numeric part.

1) huMAb2-2 (antibody, V domains shown, Humanized MAb2 (VL1a + VH1a) fused to human IgG1 and human Ckappa constant domains; also called MAb2_VL1aVH1a-IgG1; MA2_VL1aVH1a-IgG1) VH: EVQLQESGPGLVKPGGSLSLSCAASGFVFSSYDMSWVRQTPERGLEWVAYISSGGGITYAPSTVKGRFTVSRDNAKNTLYLQMNSLTSEDTAVYYCAAHYFGSSGPFAYWGQGTLVTVSS VL: DIQMTQSPASLSASVGDRVTITCRASENIFSYLAWYQQKPGKSPKLLVYNTKTLAEGVPSRFSGSGSGTDFSLTISSLQPEDFATYYCQHHYGTPFTFGSGTKLEIK; 0.3
2) huMAb2-1 (antibody, V domains shown, Humanized MAb2 (VL1 + VH1) fused to human IgG1 and human Ckappa constant domains; also called MAb2_VL1VH1-IgG1; MAb2VL1VH1-IgG1) VH: EVQLQESGPGLVKPGGSLSLSCAASGFVFSSYDMSWVRQTPERRLEWVAYISSGGGITYFPSTVKGRFTVSRDNAKNTLYLQMNSLTSEDTAIYYCAAHYFGSSGPFAYWGQGTLVTVSA VL: DIQMTQSPASLSASVGDTVTITCRASENIFSYLAWYQQKPGKSPKLLVYNTKTLAEGVPSRFSGSGSGTQFSLTISSLQPEDFGSYYCQHHYGTPFTFGSGTKLEIK; 0.3
3) huMAb2-4 (antibody, human IgG1, kappa, V domains shown, Humanized MAb2, human IgG1 / Ckappa; also called MAb2_VL1d VH1-IgG1; MAb2_VL1dVH1-IgG1) VH: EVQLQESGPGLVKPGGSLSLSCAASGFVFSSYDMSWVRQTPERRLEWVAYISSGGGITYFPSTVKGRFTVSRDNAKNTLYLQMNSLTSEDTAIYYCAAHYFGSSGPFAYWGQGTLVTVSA VL: DIQMTQSPASLSASVGDTVTITCRASENIFSYLAWYQQKPGKSPKLLVYNTRTLAEGVPSRFSGSGSGTQFSLTISSLQPEDFGSYYCQHHYGTPFTFGSGTKLEIKR; 0.3

Query :: Need percentage of binding compared to full binding with human CEACAM5 of chMAb2 (antibody, human IgG1, kappa, V domains shown, Chimeric, human IgG1, Ck isotype; also called MAb2-IgG1; chimeric MAb2) VH: EVQLQESGGVLVKPGGSLKLSCAASGFVFSSYDMSWVRQTPEKRLEWVAYISSGGGITYFPDTVQGRFTVSRDNAKNTLYLQMNSLKSEDTAIYYCAAHYFGSSGPFAYWGQGTLVTVSA VL: DIQMTQSPASLSASVGETVTITCRASENIFSYLAWYQQKQGKSPQLLVYNTKTLAEGVPSRFSGSGSGTQFSLKINSLQPEDFGSYYCQHHYGTPFTFGSGTKLEIKR , thanks.
Result :: 0.3

Query :: And then huMAb2-3 (antibody, human IgG1, kappa, V domains shown, Humanized MAb2, human IgG1 / Ckappa; also called MAb2_VL1cVH1a-IgG1) VH: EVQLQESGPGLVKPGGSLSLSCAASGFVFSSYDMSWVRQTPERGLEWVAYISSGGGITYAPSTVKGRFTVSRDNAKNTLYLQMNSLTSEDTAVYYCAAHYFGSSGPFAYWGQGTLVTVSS VL: DIQMTQSPASLSASVGDRVTITCRASENIFSYLAWYQQKPGKSPKLLVYNTRTLAEGVPSRFSGSGSGTDFSLTISSLQPEDFATYYCQHHYGTPFTFGSGTKLEIKR , what is it?
Result :: 0.4
